TARGET DESC: mGluR5 (Homo sapiens (Human), UniProt P41594)
Sequence (P41594 21-1212): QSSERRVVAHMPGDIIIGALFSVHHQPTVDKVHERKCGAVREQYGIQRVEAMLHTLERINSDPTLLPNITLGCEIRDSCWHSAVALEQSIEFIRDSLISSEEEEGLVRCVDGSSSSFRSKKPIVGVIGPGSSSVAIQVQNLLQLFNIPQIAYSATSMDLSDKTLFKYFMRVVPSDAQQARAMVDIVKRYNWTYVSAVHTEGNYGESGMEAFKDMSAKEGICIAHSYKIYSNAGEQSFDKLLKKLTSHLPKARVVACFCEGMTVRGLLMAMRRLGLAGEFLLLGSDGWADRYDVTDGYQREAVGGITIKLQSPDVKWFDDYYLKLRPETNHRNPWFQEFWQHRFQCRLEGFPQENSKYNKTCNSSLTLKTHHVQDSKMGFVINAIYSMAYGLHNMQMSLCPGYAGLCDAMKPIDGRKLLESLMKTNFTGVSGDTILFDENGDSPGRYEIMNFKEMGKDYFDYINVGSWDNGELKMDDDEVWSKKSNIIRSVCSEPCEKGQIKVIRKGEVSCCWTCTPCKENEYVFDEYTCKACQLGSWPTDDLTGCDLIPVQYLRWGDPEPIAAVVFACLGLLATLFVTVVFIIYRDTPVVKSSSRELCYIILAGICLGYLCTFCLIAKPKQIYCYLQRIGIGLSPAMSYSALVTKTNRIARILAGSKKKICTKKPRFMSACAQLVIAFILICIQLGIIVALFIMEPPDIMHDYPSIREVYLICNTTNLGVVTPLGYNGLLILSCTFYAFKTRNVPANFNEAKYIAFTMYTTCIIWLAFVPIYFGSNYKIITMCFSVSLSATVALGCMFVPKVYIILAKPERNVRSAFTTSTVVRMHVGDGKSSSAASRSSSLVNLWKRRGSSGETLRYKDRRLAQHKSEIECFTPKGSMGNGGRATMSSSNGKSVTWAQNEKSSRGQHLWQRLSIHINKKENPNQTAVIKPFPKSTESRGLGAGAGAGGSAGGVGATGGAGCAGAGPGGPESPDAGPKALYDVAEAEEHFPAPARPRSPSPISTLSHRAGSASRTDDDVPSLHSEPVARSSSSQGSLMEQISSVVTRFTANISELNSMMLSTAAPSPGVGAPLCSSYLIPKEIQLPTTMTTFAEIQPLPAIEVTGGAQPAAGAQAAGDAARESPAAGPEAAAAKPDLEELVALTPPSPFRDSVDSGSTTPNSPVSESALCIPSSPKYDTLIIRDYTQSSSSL
EXPERIMENT SUMMARY: In vitro activity test for mGluR5, HDB Fluo-8 calcium fluorescence detection (FLIPR)
TEST CONTEXT: HEK293/mGluR5 cell line
Each entry below carries its reported pIC50.
Answer as the number alone; pIC50 is minus log10 of concentration in mol/L.

Here are 4 compounds together with their reported answers.
- O=C(Nc1ccc(F)cc1)c1cc(C#Cc2ccccn2)ccc1Cl: 7.69
- Cc1nc(C#Cc2cccc(C(=O)Nc3ccc(C#N)cc3)c2)cs1: 7.06
- Cc1nc(C#Cc2cccc(C(=O)Nc3cccc(F)c3)c2)cs1: 6.88
- Cc1nc(C#Cc2ccc(F)c(C(=O)Nc3ccc(C#N)cc3)c2)cs1: 7.27

Then this compound:
The compound Cc1nc(C#Cc2cccc(C(=O)Nc3ccccc3)c2)cs1 , when measured on mGluR5 (Homo sapiens (Human), UniProt P41594), yielded pIC50 of 7.83

====

EXPERIMENT SUMMARY: Determination of brain tissue content in rats
Format: in vivo
TEST CONTEXT: plasma; rat, sampling time 0.25 h; read-out: Plasma
QUANTITY MEASURED: concentration at 0.25 h (ng/mL)
Note: unit ng/mL is implicit; provide only the numeric part.

Query Cc1nc(C#Cc2ccc(F)c(C(=O)Nc3cccnc3)c2)cs1 yields concentration at 0.25 h of 1240

====

TARGET DESC: mGluR5 (Homo sapiens (Human))
EXPERIMENT SUMMARY: In vitro activity test for mGluR5, HDB Fluo-8 calcium fluorescence detection (FLIPR)
TEST CONTEXT: HEK293/mGluR5 cell line
QUANTITY MEASURED: pIC50
Give only the number. pIC50 is defined as minus log10 of concentration in molar units.

Check out these entries, answers already filled in.
- O=C(Nc1ccc(F)cc1)c1cc(C#Cc2ccccn2)ccc1F [ZD001]: 7.86
- CC1c2ccccc2CCN1C(=O)c1cc(C#Cc2ccccn2)ccc1F (stereo not shown) [ZD048]: 7.15
- O=C(c1cc(C#Cc2ccccn2)ccc1F)N1CCc2ccccc2C1 [ZD046]: 7.82
- Cc1nc(C#Cc2cccc(C(=O)Nc3cccc(C#N)c3)c2)cs1 [ZD019]: 6.87
- Cc1nc(C#Cc2cccc(C(=O)N3CCc4ccccc4C3C)c2)cs1 (stereo not shown) [ZD011]: 7.49
- Cc1nc(C#Cc2ccc(C)c(C(=O)Nc3ccc(F)cc3)c2)cs1 [ZD041]: 6.96

Briefly, pIC50 measured for Cc1ccc(C#Cc2ccccn2)cc1C(=O)Nc1ccc(F)cc1 [ZD040] : 6.98

The measured pIC50 associated with Cc1nc(C#Cc2ccc(F)c(C(=O)N3CCc4ccccc4C3)c2)cs1 [ZD047] reads 8.18

Record summary for Cc1nc(C#Cc2ccc(Cl)c(C(=O)Nc3ccc(F)cc3)c2)cs1 [ZD037] : reported pIC50 = 8.14

Quick note, pIC50 for O=C(Nc1cccnc1)c1cc(C#Cc2ccccn2)ccc1F [ZD042] landed at 7.71

====

EXPERIMENT SUMMARY: Pharmacokinetic experiment in rats
Assay type: in vivo
TEST CONTEXT: plasma, po; rat, gavage 20 mg/kg; read-out: AUC0-t
QUANTITY MEASURED: AUC(0-t) (ng·h/mL)
I only need the number, in ng·h/mL, no unit after it.

The recorded AUC(0-t) for Cc1nc(C#Cc2ccc(F)c(C(=O)Nc3cccnc3)c2)cs1 is 10500
